Measured IC50, listed per entry.
TARGET_ENTITY: I-Ag7 protein (mouse MHC class II molecule of the NOD mouse), affinity-purified from 4G4.7 B cell hybridoma cells (mouse (NOD))
ASSAY_NOTES: competition ELISA on purified I-Ag7 against ~200 nM biotinylated HEL 10-23
QUANTITY_KIND: IC50 (µM)

> print(dat)
                                     binder  units.of.measure  result.value
1  GGGPGAGSLQPLALE [human proinsulin peptide (45-59)]                µM           0.2
2  EALYLVAGERGFFYT [human proinsulin peptide (13-27), cysteines substituted by alanine]                µM             4
3  LQPLALEGSLQKRGI [human proinsulin peptide (53-67)]                µM            25
4  QVELGGGPGAGSLQP [human proinsulin peptide (41-55)]                µM             6
5  SHLVEALYLVAGERG [human proinsulin peptide (9-23), cysteines substituted by alanine]                µM             1
